# procedure summary: Cytotoxicity assay, PBM cells
# Type: cell-based, Human
# experimental conditions: human
Friendly reminder: IC50 at 5 day below 20 µM is condition met, at or above is condition not met.

The following compounds have reported results that may help.
[
  {
    "structure": "O=C(CN1c2c(n[nH]c2-c2cccc(Cl)c2)-c2ccccc2S1(=O)=O)NN=Cc1c(Cl)cccc1Cl",
    "class assignment": "condition not met"
  },
  {
    "structure": "O=C(CN1c2c(n[nH]c2-c2cccc(Cl)c2)-c2ccccc2S1(=O)=O)NN=Cc1ccc(Cl)cc1Cl",
    "class assignment": "condition not met"
  },
  {
    "structure": "O=C(CN1c2c(n[nH]c2-c2cccc(Cl)c2)-c2ccccc2S1(=O)=O)NN=Cc1cccc(Br)c1",
    "class assignment": "condition not met"
  },
  {
    "structure": "O=C(CN1c2c(n[nH]c2-c2cccc(Cl)c2)-c2ccccc2S1(=O)=O)NN=Cc1ccc([N+](=O)[O-])cc1",
    "class assignment": "condition met"
  },
  {
    "structure": "COc1cc(C=NNC(=O)CN2c3c(n[nH]c3-c3cccc(Cl)c3)-c3ccccc3S2(=O)=O)cc(OC)c1OC",
    "class assignment": "condition met"
  }
]

Regarding O=C(CN1c2c(n[nH]c2-c2cccc(Cl)c2)-c2ccccc2S1(=O)=O)NN=Cc1cccc([N+](=O)[O-])c1 , kindly confirm whether its IC50 at 5 day is beneath 20 µM.
condition not met

hey, is IC50 at 5 day for COC(=O)CN1C(C(=O)c2cccc(Cl)c2)=C(O)c2ccccc2S1(=O)=O lower than 20 µM or not?
condition not met

A record lists COc1cccc(C=NNC(=O)CN2c3c(n[nH]c3-c3cccc(Cl)c3)-c3ccccc3S2(=O)=O)c1 . Is its IC50 at 5 day below 20 µM?
condition met

Below 20 µM on IC50 at 5 day? Entry O=C(CN1c2c(n[nH]c2-c2cccc(Cl)c2)-c2ccccc2S1(=O)=O)NN=Cc1cccc(Cl)c1
condition not met

* * *

# Test system: PBM cells
# procedure summary: Cytotoxicity assay, PBM cells
# Type: cell-based, Human
# experimental conditions: read-out: Cytotoxicity IC50 PBM, 5-day incubation
pIC50: −log10 of the molar value.
reported property: pIC50

[
  {
    "compound": "NNC(=O)CN1c2c(n[nH]c2-c2cccc(Cl)c2)-c2ccccc2S1(=O)=O [Compound 4]",
    "pIC50": "< 4.00"
  }
]

Here is the next item to consider.
Determine from records and report pIC50 for O=C(CN1C(=O)c2ccccc2S1(=O)=O)c1cccc(Cl)c1 [Compound 1, N-3′-Chlorophenacylsaccharine]
< 4.00

* * *

# procedure summary: in vitro
# experimental conditions: human, CEM cells (lymphoblastic cell line)
reported property: IC50 at 5 day (µM)
Report as a plain number; the unit µM is understood.

Recall and state the measured IC50 at 5 day for O=C(CN1c2c(n[nH]c2-c2cccc(Cl)c2)-c2ccccc2S1(=O)=O)NN=Cc1cccc(Br)c1 .
12.9

Give recorded IC50 at 5 day. O=C(CN1c2c(n[nH]c2-c2cccc(Cl)c2)-c2ccccc2S1(=O)=O)NN=Cc1ccc(F)cc1
31.6

Provide one value: measured IC50 at 5 day of COc1cc(C=NNC(=O)CN2c3c(n[nH]c3-c3cccc(Cl)c3)-c3ccccc3S2(=O)=O)cc(OC)c1OC
31.6

* * *

# procedure summary: Cytotoxicity assay, Vero cells
# Assay type: cell-based, African green monkey
# experimental conditions: African green monkey, Vero cells (kidney)
The label YES is reserved for IC50 at 5 day strictly under 30 µM; NO covers values equal to or above it.

Please determine if O=C(CN1c2c(n[nH]c2-c2cccc(Cl)c2)-c2ccccc2S1(=O)=O)NN=Cc1ccc(Br)cc1 is below 30 µM in terms of IC50 at 5 day.
NO

# check: IC50 at 5 day < 30 µM for O=C(CN1c2c(n[nH]c2-c2cccc(Cl)c2)-c2ccccc2S1(=O)=O)NN=Cc1c(Cl)cccc1Cl
NO

Dear colleague, could you confirm whether IC50 at 5 day of O=C(CN1c2c(n[nH]c2-c2cccc(Cl)c2)-c2ccccc2S1(=O)=O)NN=Cc1cccc([N+](=O)[O-])c1 falls below 30 µM? Thanks.
YES

Is the reported IC50 at 5 day for O=C(CN1c2c(n[nH]c2-c2cccc(Cl)c2)-c2ccccc2S1(=O)=O)NN=Cc1cccc(Br)c1 strictly below 30 µM?
NO

Dear colleague, could you confirm whether IC50 at 5 day of COc1cccc(C=NNC(=O)CN2c3c(n[nH]c3-c3cccc(Cl)c3)-c3ccccc3S2(=O)=O)c1 falls below 30 µM? Thanks.
YES

* * *

# procedure summary: Cytotoxicity assay, PBM cells
# Assay type: cell-based, Human
# experimental conditions: human
reported property: IC50 at 5 day

Worked cases, answers included:
[
  {
    "molecule": "O=C(CN1c2c(n[nH]c2-c2cccc(Cl)c2)-c2ccccc2S1(=O)=O)NN=Cc1ccc(C(=O)O)cc1 [Compound 5n]",
    "result value": "17.2 µM"
  },
  {
    "molecule": "O=C(CN1c2c(n[nH]c2-c2cccc(Cl)c2)-c2ccccc2S1(=O)=O)NN=Cc1ccc(Cl)cc1 [Compound 5c]",
    "result value": "12.8 µM"
  },
  {
    "molecule": "O=C(CN1c2c(n[nH]c2-c2cccc(Cl)c2)-c2ccccc2S1(=O)=O)NN=Cc1ccccc1[N+](=O)[O-] [Compound 5k]",
    "result value": "> 100 µM"
  },
  {
    "molecule": "CN(C)c1ccc(C=NNC(=O)CN2c3c(n[nH]c3-c3cccc(Cl)c3)-c3ccccc3S2(=O)=O)cc1 [Compound 5o]",
    "result value": "23.7 µM"
  },
  {
    "molecule": "O=C(CN1c2c(n[nH]c2-c2cccc(Cl)c2)-c2ccccc2S1(=O)=O)NN=Cc1ccc(Br)cc1 [Compound 5e]",
    "result value": "66.7 µM"
  },
  {
    "molecule": "COc1ccc(C=NNC(=O)CN2c3c(n[nH]c3-c3cccc(Cl)c3)-c3ccccc3S2(=O)=O)c(OC)c1OC [Compound 5i]",
    "result value": "21.8 µM"
  }
]

Indicate the recorded IC50 at 5 day value for this molecule: O=C(C1=C(O)c2ccccc2S(=O)(=O)N1)c1cccc(Cl)c1 [Compound 2]
> 100 µM

* * *

# procedure summary: in vitro
# experimental conditions: human, CEM cells (lymphoblastic cell line)
Known log10 IC50 at 5 day of a selection of compounds
Please note: log10 values; quantity IC50 at 5 day; unit µM.

Example results:
[
  {
    "structure": "O=C(CN1c2c(n[nH]c2-c2cccc(Cl)c2)-c2ccccc2S1(=O)=O)NN=Cc1cccc(Cl)c1",
    "log10 IC50 at 5 day": 1.50
  },
  {
    "structure": "O=C(CN1c2c(n[nH]c2-c2cccc(Cl)c2)-c2ccccc2S1(=O)=O)NN=Cc1c(Cl)cccc1Cl",
    "log10 IC50 at 5 day": 1.10
  },
  {
    "structure": "COc1cccc(C=NNC(=O)CN2c3c(n[nH]c3-c3cccc(Cl)c3)-c3ccccc3S2(=O)=O)c1",
    "log10 IC50 at 5 day": 1.50
  },
  {
    "structure": "O=C(C1=C(O)c2ccccc2S(=O)(=O)N1)c1cccc(Cl)c1",
    "log10 IC50 at 5 day": 1.43
  }
]

Supply log10 IC50 at 5 day value. Item: COc1ccc(C=NNC(=O)CN2c3c(n[nH]c3-c3cccc(Cl)c3)-c3ccccc3S2(=O)=O)c(OC)c1OC
1.50

* * *

Recorded IC50 at 5 day values for a group of compounds are listed next.
# procedure summary: Cytotoxicity assay, Vero cells
# Type: cell-based, African green monkey
# experimental conditions: African green monkey, Vero cells (kidney)
Write the value in µM as a bare number.

Known IC50 at 5 day results, listed for orientation:
[
  {
    "structure": "O=C(CN1c2c(n[nH]c2-c2cccc(Cl)c2)-c2ccccc2S1(=O)=O)NN=Cc1ccc(Cl)cc1Cl",
    "IC50 at 5 day / µM": 84.8
  },
  {
    "structure": "O=C(CN1c2c(n[nH]c2-c2cccc(Cl)c2)-c2ccccc2S1(=O)=O)NN=Cc1ccc(Cl)cc1",
    "IC50 at 5 day / µM": 19.2
  },
  {
    "structure": "CN(C)c1ccc(C=NNC(=O)CN2c3c(n[nH]c3-c3cccc(Cl)c3)-c3ccccc3S2(=O)=O)cc1",
    "IC50 at 5 day / µM": 10.4
  }
]

Find the measured IC50 at 5 day of O=C(CN1c2c(n[nH]c2-c2cccc(Cl)c2)-c2ccccc2S1(=O)=O)NN=Cc1ccc([N+](=O)[O-])cc1 and report it.
21.2

State its IC50 at 5 day for this compound: O=C(CN1c2c(n[nH]c2-c2cccc(Cl)c2)-c2ccccc2S1(=O)=O)NN=Cc1ccc(C(=O)O)cc1
18.2

Return value of IC50 at 5 day for input O=C(CN1c2c(n[nH]c2-c2cccc(Cl)c2)-c2ccccc2S1(=O)=O)NN=Cc1cccc(Cl)c1 , no commentary.
16.4

Supply recorded IC50 at 5 day for COc1cc(C=NNC(=O)CN2c3c(n[nH]c3-c3cccc(Cl)c3)-c3ccccc3S2(=O)=O)cc(OC)c1OC here.
14.3

Please give measured IC50 at 5 day of the following entry: O=C(CN1c2c(n[nH]c2-c2cccc(Cl)c2)-c2ccccc2S1(=O)=O)NN=Cc1ccc(F)cc1
45.7

Give reported IC50 at 5 day value for COc1ccc(C=NNC(=O)CN2c3c(n[nH]c3-c3cccc(Cl)c3)-c3ccccc3S2(=O)=O)c(OC)c1OC
29

Quote IC50 at 5 day reported for COC(=O)CN1C(C(=O)c2cccc(Cl)c2)=C(O)c2ccccc2S1(=O)=O please.
40.6
